biological target: CBP (Homo sapiens, UniProt Q92793); construct: endogenous in cells; host or cells: 22Rv1 (ATCC CRL-2505) human prostate cancer cells; experiment: CBP degradation in 22Rv1 cells (5 h); type: cell-based; conditions: 22Rv1 cells, 5 h
Sequence (Q92793 whole entry): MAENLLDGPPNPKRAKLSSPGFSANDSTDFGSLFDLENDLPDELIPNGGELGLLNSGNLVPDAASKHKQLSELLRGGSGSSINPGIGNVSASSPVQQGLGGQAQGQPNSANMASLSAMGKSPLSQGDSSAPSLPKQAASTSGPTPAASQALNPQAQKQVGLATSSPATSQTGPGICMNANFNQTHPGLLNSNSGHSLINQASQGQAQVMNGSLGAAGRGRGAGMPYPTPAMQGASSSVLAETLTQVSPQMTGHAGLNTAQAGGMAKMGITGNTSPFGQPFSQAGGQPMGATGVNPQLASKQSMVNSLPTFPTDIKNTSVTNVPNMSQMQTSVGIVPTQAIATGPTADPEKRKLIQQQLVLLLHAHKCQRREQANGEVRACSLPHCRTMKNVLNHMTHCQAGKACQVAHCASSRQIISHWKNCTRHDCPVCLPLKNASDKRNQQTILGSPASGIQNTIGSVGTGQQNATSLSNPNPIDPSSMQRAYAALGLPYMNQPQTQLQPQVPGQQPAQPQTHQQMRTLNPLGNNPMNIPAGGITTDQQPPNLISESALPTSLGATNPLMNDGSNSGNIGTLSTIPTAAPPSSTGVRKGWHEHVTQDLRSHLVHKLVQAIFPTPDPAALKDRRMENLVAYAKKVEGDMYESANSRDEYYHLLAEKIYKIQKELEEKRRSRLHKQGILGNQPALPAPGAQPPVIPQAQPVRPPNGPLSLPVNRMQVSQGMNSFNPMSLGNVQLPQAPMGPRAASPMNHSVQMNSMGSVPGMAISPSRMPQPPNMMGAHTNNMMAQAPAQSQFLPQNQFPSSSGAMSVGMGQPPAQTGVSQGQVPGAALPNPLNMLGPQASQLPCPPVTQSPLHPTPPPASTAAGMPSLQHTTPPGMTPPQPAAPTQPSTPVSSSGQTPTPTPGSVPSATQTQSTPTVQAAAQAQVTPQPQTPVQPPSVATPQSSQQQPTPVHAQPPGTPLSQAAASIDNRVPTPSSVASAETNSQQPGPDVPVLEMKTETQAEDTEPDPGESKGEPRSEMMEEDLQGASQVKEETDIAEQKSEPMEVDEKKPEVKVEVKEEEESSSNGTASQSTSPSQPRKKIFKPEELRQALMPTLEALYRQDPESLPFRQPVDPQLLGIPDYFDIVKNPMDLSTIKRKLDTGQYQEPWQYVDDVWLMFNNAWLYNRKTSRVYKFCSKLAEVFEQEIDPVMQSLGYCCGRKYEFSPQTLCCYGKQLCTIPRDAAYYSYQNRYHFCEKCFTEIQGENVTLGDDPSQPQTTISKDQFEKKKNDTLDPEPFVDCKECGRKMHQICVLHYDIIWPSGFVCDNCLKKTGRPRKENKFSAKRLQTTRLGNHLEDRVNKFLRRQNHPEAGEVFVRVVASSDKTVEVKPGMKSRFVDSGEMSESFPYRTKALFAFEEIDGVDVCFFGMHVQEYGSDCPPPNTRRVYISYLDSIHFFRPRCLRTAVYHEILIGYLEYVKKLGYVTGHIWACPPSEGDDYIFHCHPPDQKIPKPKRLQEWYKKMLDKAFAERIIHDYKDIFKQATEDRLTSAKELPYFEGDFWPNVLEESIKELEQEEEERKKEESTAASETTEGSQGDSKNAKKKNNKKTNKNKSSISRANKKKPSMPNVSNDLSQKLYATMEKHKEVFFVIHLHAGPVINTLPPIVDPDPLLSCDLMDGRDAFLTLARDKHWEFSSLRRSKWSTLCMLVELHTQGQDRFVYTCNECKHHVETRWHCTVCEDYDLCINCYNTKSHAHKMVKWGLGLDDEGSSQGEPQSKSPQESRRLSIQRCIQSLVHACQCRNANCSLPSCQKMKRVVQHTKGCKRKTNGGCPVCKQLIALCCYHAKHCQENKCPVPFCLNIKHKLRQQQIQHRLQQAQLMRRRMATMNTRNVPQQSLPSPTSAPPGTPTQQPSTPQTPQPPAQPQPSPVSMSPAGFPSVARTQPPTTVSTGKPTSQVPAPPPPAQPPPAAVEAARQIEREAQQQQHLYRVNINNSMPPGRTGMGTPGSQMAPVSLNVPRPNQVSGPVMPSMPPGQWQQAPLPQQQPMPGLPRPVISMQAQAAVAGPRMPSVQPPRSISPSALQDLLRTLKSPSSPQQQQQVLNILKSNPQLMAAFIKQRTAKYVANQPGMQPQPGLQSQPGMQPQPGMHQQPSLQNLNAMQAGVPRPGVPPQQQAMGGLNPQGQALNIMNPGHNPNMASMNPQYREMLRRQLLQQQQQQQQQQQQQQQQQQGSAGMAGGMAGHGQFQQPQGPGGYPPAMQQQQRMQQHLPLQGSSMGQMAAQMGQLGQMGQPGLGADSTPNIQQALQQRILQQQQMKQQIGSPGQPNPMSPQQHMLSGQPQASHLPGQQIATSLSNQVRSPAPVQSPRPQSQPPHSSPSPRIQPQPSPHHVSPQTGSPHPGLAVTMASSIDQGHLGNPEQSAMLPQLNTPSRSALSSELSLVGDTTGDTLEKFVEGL
Examples of compounds with documented DC50 follow.

compound	DC50
CC(=O)N1CCc2c(c(N3CCCc4cc(C)c(C(F)F)cc43)nn2C2CCN(C(=O)CN3Cc4cc5c(cc4C3)C(=O)N(C3CCC(=O)NC3=O)C5=O)CC2)C1 (centres unmarked) [CP-011]	< 10 nM
CC(=O)N1CCc2c(c(N3CCCc4cc(-c5cnn(C)c5)c(C(F)F)cc43)nn2[C@H]2CC[C@@H](CN3CCc4cc5c(cc4C3)C(=O)N(C3CCC(=O)NC3=O)C5=O)CC2)C1 (relative stereo) [CP-050]	< 10 nM
CC(=O)N1CCc2c(c(N3CCCc4cc(C(C)C)c(C(F)F)cc43)nn2C2CCN(C(=O)CN3Cc4cc5c(cc4C3)C(=O)N(C3CCC(=O)NC3=O)C5=O)CC2)C1 (centres unmarked) [CP-015]	< 10 nM

Entry CC(=O)N1CCc2c(c(N3CCCc4cc(Cl)c(C(F)F)cc43)nn2C2CCN(C(=O)CN3CCc4cc5c(cc4C3)C(=O)N(C3CCC(=O)NC3=O)C5=O)CC2)C1 (centres unmarked) [CP-018] has what DC50?
< 1000 nM

Which value of DC50 has been reported for CC(=O)N1CCc2c(c(N3CCCc4ccc(C(F)F)cc43)nn2C2CCN(C(=O)CN3CCc4cc5c(cc4C3)C(=O)N(C3CCC(=O)NC3=O)C5=O)CC2)C1 (centres unmarked) [CP-009] in the records?
< 10 nM

====

biological target: CBP (Homo sapiens, UniProt Q92793); construct: endogenous in cells; host or cells: 22Rv1 (ATCC CRL-2505) human prostate cancer cells; experiment: CBP degradation in 22Rv1 cells (5 h); type: cell-based; settings: 22Rv1 cells, 5 h
DC50 overview

Solved cases (5 shown):
compound	DC50
Cc1noc(C)c1-c1ccc2c(c1)nc([C@@H]1CCCC(=O)N1c1ccc(F)c(F)c1)n2C1CCN(C(=O)CN2CCc3cc4c(cc3C2)C(=O)N(C2CCC(=O)NC2=O)C4=O)CC1 (stereo partly shown) [CP-063]	> 1000 nM
Cc1noc(C)c1-c1ccc2c(c1)nc([C@@H]1CCCC(=O)N1c1ccc(F)c(F)c1)n2C1CCN(C(=O)CN2CCc3cc4c(cc3CC2)C(=O)N(C2CCC(=O)NC2=O)C4=O)CC1 (stereo partly shown) [CP-064]	> 1000 nM
Cc1noc(C)c1-c1ccc2c(c1)nc([C@@H]1CCCC(=O)N1c1ccc(F)c(F)c1)n2C1CCN(C(=O)CN2Cc3cc4c(cc3C2)C(=O)N(C2CCC(=O)NC2=O)C4)CC1 (stereo partly shown) [CP-062]	< 1000 nM
CC(=O)N1CCc2c(c(N3CCCc4cc(-c5cnn(C)c5)c(C(F)F)cc43)nn2C[C@H]2CC[C@H](C(=O)N3Cc4cc5c(cc4C3)C(=O)N(C3CCC(=O)NC3=O)C5=O)CC2)C1 (stereo partly shown) [CP-029]	< 100 nM
Cn1cc(-c2cc3c(cc2C(F)F)N(c2nn(C4CCN(C(=O)CN5Cc6cc7c(cc6C5)C(=O)N(C5CCC(=O)NC5=O)C7=O)CC4)c4c2CN(CC(F)F)CC4)CCC3)cn1 (stereo not shown) [CP-058]	> 1000 nM

Lab note: next compound to report on.
Param item = CC(=O)N1CCc2c(ccc3c2CCCN3c2nn(C3CCN(C(=O)CN4Cc5cc6c(cc5C4)C(=O)N(C4CCC(=O)NC4=O)C6=O)CC3)c3c2CN(C(C)=O)CC3)C1 (stereo not shown) [CP-081] ; retrieve measured DC50.
> 1000 nM

====

biological target: P300 (Homo sapiens, UniProt Q09472); construct: endogenous in cells; host or cells: 22Rv1 (ATCC CRL-2505) human prostate cancer cells; experiment: P300 degradation in 22Rv1 cells (5 h); assay type: cell-based; details: 22Rv1 cells, 5 h
Sequence (Q09472 whole entry): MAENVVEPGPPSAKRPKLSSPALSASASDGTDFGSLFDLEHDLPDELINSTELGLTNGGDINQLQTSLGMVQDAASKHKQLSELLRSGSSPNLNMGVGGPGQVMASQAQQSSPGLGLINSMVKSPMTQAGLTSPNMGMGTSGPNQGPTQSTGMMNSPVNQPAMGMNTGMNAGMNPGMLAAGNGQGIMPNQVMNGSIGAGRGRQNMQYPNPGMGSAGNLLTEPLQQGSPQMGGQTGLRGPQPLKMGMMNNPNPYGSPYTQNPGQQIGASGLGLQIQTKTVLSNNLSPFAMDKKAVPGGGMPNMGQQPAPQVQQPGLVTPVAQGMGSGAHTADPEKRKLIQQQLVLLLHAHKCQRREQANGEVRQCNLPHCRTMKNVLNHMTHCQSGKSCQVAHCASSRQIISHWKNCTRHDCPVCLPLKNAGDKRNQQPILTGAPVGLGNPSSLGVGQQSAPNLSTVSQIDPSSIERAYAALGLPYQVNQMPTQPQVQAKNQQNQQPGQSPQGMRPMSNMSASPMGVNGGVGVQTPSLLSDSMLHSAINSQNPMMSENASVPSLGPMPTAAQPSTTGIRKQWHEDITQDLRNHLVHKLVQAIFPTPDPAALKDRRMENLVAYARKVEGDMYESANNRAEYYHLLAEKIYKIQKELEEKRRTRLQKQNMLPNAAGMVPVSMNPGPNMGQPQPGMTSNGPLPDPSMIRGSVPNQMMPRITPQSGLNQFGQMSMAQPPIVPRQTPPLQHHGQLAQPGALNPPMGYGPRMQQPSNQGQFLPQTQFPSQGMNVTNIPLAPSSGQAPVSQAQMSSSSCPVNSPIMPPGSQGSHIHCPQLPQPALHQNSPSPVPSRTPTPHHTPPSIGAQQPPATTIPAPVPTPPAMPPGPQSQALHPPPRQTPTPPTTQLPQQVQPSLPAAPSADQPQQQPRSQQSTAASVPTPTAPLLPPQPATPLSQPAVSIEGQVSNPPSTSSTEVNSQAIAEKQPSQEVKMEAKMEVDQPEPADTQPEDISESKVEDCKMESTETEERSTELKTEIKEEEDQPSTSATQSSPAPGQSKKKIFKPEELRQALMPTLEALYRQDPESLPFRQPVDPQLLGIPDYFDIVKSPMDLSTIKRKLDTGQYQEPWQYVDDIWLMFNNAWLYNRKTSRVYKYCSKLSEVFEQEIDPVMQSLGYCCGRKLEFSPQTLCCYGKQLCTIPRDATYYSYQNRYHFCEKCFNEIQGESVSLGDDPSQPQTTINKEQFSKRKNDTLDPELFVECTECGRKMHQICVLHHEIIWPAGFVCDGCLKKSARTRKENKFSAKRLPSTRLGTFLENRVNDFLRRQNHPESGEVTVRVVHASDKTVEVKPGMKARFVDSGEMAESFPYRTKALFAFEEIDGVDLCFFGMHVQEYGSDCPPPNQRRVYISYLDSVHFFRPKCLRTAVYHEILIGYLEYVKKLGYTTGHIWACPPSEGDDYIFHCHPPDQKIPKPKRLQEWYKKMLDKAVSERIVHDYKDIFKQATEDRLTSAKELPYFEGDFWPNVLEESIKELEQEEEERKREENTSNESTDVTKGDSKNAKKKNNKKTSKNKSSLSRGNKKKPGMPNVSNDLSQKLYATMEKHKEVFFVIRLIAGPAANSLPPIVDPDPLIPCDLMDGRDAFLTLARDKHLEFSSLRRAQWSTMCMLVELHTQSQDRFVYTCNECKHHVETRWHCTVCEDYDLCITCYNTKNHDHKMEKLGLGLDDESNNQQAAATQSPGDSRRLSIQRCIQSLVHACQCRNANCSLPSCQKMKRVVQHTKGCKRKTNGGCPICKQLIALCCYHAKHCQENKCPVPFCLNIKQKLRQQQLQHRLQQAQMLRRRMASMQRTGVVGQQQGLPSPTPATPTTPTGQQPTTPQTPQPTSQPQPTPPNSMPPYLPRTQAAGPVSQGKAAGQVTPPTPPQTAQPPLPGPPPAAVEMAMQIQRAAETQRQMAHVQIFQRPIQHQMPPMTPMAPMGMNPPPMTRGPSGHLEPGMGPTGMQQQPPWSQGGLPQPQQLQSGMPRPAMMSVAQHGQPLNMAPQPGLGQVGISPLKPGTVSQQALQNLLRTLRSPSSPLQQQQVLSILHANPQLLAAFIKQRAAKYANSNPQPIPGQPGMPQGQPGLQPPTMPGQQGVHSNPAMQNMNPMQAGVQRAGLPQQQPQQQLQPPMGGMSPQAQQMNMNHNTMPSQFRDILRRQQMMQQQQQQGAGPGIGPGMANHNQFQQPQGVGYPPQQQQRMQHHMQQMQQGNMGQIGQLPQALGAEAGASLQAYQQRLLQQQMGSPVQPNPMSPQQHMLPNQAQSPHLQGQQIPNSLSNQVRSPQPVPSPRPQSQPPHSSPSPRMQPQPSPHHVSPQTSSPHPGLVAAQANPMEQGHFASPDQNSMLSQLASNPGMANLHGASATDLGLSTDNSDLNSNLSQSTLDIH
The following compounds are shown together with reported DC50 values.

compound	target-system	assay-value
CC(=O)N1CCc2c(c(N3CCCc4cc(Cl)c(C(F)F)cc43)nn2C2CCN(C(=O)CN3CCc4cc5c(cc4C3)C(=O)N(C3CCC(=O)NC3=O)C5=O)CC2)C1 (centres unmarked) [CP-018]	P300 (Homo sapiens, UniProt Q09472)	> 1 µM

Would you kindly share the measured DC50 for CC(=O)N1CCc2c(c(N3CCCc4cc(-c5cnn(C)c5)c(C(F)F)cc43)nn2[C@H]2CC[C@H](CN3CC4(Cc5cc6c(cc5C4)C(=O)N(C4CCC(=O)NC4=O)C6=O)C3)CC2)C1 (some centres unmarked) [CP-088] ?
< 0.01 µM

Given the entry CC(=O)N1CCc2c(c(-c3cccc4ccccc34)nn2C2CCN(C(=O)CN3Cc4cc5c(cc4C3)C(=O)N(C3CCC(=O)NC3=O)C5=O)CC2)C1 (centres unmarked) [CP-075] , report its measured DC50.
< 0.01 µM

Need DC50, item CC(=O)N1CCc2c(c(N3CCCc4cc(-c5cnn(C)c5)c(C(F)F)cc43)nn2C2CCC(C(C)CN3Cc4cc5c(cc4C3)C(=O)N(C3CCC(=O)NC3=O)C5=O)CC2)C1 (centres unmarked) [CP-051]
< 0.01 µM

Reported DC50, compound Cc1noc(C)c1-c1ccc2c(c1)nc([C@@H]1CCCC(=O)N1c1ccc(F)c(F)c1)n2C1CCN(C(=O)CCCN2Cc3cc4c(cc3C2)C(=O)N(C2CCC(=O)NC2=O)C4=O)CC1 (some centres unmarked) [CP-066] : ____
> 1 µM

====

target: CBP (Homo sapiens); construct: endogenous in cells; host or cells: 22Rv1 (ATCC CRL-2505) human prostate cancer cells; experiment: CBP degradation in 22Rv1 cells (5 h); assay type: cell-based; details: 22Rv1 cells, 5 h
Each entry below carries its reported DC50.

// known answers, use as guide
molecule	target-system	DC50
Cn1cc(-c2cc3c(cc2C(F)F)N(c2nn(C4CCN(C(=O)CN5Cc6cc7c(cc6C5)C(=O)N(C5CCC(=O)NC5=O)C7=O)CC4)c4c2CN(C(=O)C2CC2)CC4)CCC3)cn1 (centres unmarked)	CBP (Homo sapiens)	> 1000 nM
Cn1cc(-c2cc3c(cc2C(F)F)N(c2nn(C4CCN(C(=O)CN5Cc6cc7c(cc6C5)C(=O)N(C5CCC(=O)NC5=O)C7=O)CC4)c4c2CN(C(=O)C(F)F)CC4)CCC3)cn1 (centres unmarked)	CBP (Homo sapiens)	< 1000 nM
CC(=O)N1CCc2c(c(N3CCCc4cc(-c5cnn(C)c5)c(C(F)F)cc43)nn2C2CCN(C(=O)CCN3CCc4cc5c(cc4C3)C(=O)N(C3CCC(=O)NC3=O)C5=O)CC2)C1 (centres unmarked)	CBP (Homo sapiens)	< 100 nM
CC(=O)N1CCc2c(c(N3CCCc4cc(-c5cnn(C)c5)c(C(F)F)cc43)nn2C2CCC(C(=O)N3CCc4cc5c(cc4C3)C(=O)N(C3CCC(=O)NC3=O)C5=O)CC2)C1 (centres unmarked) [CP-036]	CBP (Homo sapiens)	< 10 nM

Turning now to a further molecule:
GET /values?readout=DC50&system=CBP (Homo sapiens)&item= CC(=O)N1CCc2c(c(N3CCCc4cc(C5CCCCC5)c(C(F)F)cc43)nn2C2CCN(C(=O)CN3Cc4cc5c(cc4C3)C(=O)N(C3CCC(=O)NC3=O)C5=O)CC2)C1 (centres unmarked)
< 10 nM

====

biological target: P300 (Homo sapiens, UniProt Q09472); construct: endogenous in cells; host or cells: 22Rv1 (ATCC CRL-2505) human prostate cancer cells; test: P300 degradation in 22Rv1 cells (5 h); assay type: cell-based; details: 22Rv1 cells, 5 h
Here, each record is paired with measured DC50 data.

Endpoint output: DC50 of Cc1noc(C)c1-c1ccc2c(c1)nc([C@@H]1CCCC(=O)N1c1ccc(F)c(F)c1)n2C1CCN(C(=O)CN2Cc3cc4c(cc3C2)C(=O)N(C2CCC(=O)NC2=O)C4)CC1 (some centres unmarked) . Value?
< 100 nM

# query: DC50 of entry CC(=O)N1CCc2c(c(N3CCCc4cc(-c5cnn(C)c5)c(C(F)F)cc43)nn2C2CCC(N3CCc4ccc5c(c4C3)C(=O)N(C3CCC(=O)NC3=O)C5=O)CC2)C1 (centres unmarked)
> 1000 nM

====

molecular target: CBP (Homo sapiens, UniProt Q92793); construct: endogenous in cells; host or cells: 22Rv1 (ATCC CRL-2505) human prostate cancer cells; test: CBP degradation in 22Rv1 cells (5 h); type: cell-based; settings: 22Rv1 cells, 5 h
measurement-name: DC50

Check out these entries, answers already filled in.
compound	assay-value
CC(=O)N1CCc2c(c(-c3cccc4ccncc34)nn2C2CCN(C(=O)CN3Cc4cc5c(cc4C3)C(=O)N(C3CCC(=O)NC3=O)C5=O)CC2)C1 (centres unmarked)	> 1000 nM
CC(=O)N1CCc2c(c(N3CCCc4cc(-c5cnn(C)c5)c(C(F)F)cc43)nn2C2CCC(C(C)CN3Cc4cc5c(cc4C3)C(=O)N(C3CCC(=O)NC3=O)C5=O)CC2)C1 (centres unmarked)	< 10 nM
CC(=O)N1CCc2c(c(N3CCCc4cc5c(cc43)C(C)CCC5)nn2C2CCN(C(=O)CN3Cc4cc5c(cc4C3)C(=O)N(C3CCC(=O)NC3=O)C5=O)CC2)C1 (centres unmarked)	< 100 nM
CC(=O)c1cc2c(cc1C(F)F)N(c1nn(C3CCN(C(=O)CN4Cc5cc6c(cc5C4)C(=O)N(C4CCC(=O)NC4=O)C6=O)CC3)c3c1CN(C(C)=O)CC3)CCC2 (centres unmarked)	> 1000 nM
CC(=O)N1CCc2c(c(-c3cccc4ccccc34)nn2C2CCN(C(=O)CN3Cc4cc5c(cc4C3)C(=O)N(C3CCC(=O)NC3=O)C5=O)CC2)C1 (centres unmarked)	< 10 nM
CC(=O)N1CCc2c(c(N3CCCc4cc(Br)c(C(F)F)cc43)nn2C2CCN(C(=O)CN3Cc4cc5c(cc4C3)C(=O)N(C3CCC(=O)NC3=O)C5=O)CC2)C1 (centres unmarked)	> 1000 nM

Provide the documented DC50 with CBP (Homo sapiens, UniProt Q92793) as the system for CC(=O)N1CCc2c(c(N3CCCc4cc(C5CC5)c(C(F)F)cc43)nn2C2CCN(C(=O)CN3CCc4cc5c(cc4C3)C(=O)N(C3CCC(=O)NC3=O)C5=O)CC2)C1 (centres unmarked)
< 10 nM

Which DC50 is reported with CBP (Homo sapiens, UniProt Q92793) for this entry: CC(=O)N1CCc2c(c(N3CCCc4cc(-c5cnn(C)c5)c(C(F)F)cc43)nn2C2CCC(CCN3CCc4cc5c(cc4C3)C(=O)N(C3CCC(=O)NC3=O)C5=O)CC2)C1 (centres unmarked) ?
< 10 nM

Item Cc1noc(C)c1-c1ccc2c(c1)nc([C@@H]1CCCC(=O)N1c1ccc(F)c(F)c1)n2C1CCN(C(=O)CCN2Cc3cc4c(cc3C2)C(=O)N(C2CCC(=O)NC2=O)C4=O)CC1 (some centres unmarked) with CBP (Homo sapiens, UniProt Q92793) - DC50?
> 1000 nM

Report DC50 for CC(=O)N1CCc2c(c(N3CCCc4cc(-c5cnn(C)c5)c(C(F)F)cc43)nn2C2CCN(CC(=O)N3CCc4cc5c(cc4C3)C(=O)N(C3CCC(=O)NC3=O)C5=O)CC2)C1 (centres unmarked) tested on CBP (Homo sapiens, UniProt Q92793).
< 10 nM

Recorded DC50 for CC(=O)c1cc2c(cc1C(F)F)N(c1nn(C3CCN(C(=O)CN4CCc5cc6c(cc5C4)C(=O)N(C4CCC(=O)NC4=O)C6=O)CC3)c3c1CN(C(C)=O)CC3)CCC2 (centres unmarked) with CBP (Homo sapiens, UniProt Q92793), please?
> 1000 nM
